# target or system: Prostaglandin E2 receptor EP3 subtype (Homo sapiens, UniProt P43115)
# Sequence (P43115 whole entry): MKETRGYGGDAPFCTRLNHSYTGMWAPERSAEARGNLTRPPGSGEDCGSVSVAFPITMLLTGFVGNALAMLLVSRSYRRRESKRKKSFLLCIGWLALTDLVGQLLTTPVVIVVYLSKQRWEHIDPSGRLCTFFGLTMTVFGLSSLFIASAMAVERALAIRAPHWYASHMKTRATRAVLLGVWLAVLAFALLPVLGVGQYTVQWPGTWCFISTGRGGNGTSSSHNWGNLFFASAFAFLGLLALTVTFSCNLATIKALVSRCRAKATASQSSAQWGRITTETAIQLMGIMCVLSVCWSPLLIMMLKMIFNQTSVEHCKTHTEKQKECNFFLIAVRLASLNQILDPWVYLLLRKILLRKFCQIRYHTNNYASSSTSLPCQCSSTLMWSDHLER
measure: Ki

>>> experimental_result("Cc1cccc(C/C=C/c2ccccc2/C=C/C(=O)O)c1OCc1ccccc1")
"9 nM"
